parameter: melting point

Answered examples (6):
NNC(=O)c1ccc2c(c1)C(=C(Cl)Cl)OC(C(Cl)(Cl)Cl)O2 (stereo not given)	182 to 183 °C
CC(=O)N[C@H]1CC[C@H](c2ccc([N+](=O)[O-])cc2)CC1	221 to 224 °C
CCc1ccc(Nc2nc3cc(NC(=O)c4ccc(CC)cc4)ccc3o2)cc1	> 250 °C
CC(=O)NC1CCN(CCC2CCOc3ccccc32)CC1 (stereo not given)	126 to 128 °C
COc1cc2c(cc1OC)CCCC(C(=O)N1CCNCC1)=C2	137 to 138 °C
CC(C)=NNc1cc2c(nn1)CCN(C(=O)c1ccccc1F)C2	200 to 203 °C

Query: melting point lookup needed for COc1ccc(C2CCN(C(=O)C(=O)NO)CC2)cc1C=C1CCCCCC1 , thanks.
Reply: 135 to 136 °C

Query: melting point lookup needed for COc1ccc(-c2ccc3nnn(Cc4ccc5ncccc5c4)c3n2)cc1 , thanks.
Reply: 144 to 146 °C

Query: melting point lookup needed for CC(C)(F)c1cnn2c(-c3ccc(F)c(-c4ccc(F)cc4C#N)c3F)cnc2n1 , thanks.
Reply: 166 to 169 °C

Query: melting point lookup needed for NC(=O)CCc1ccc(-c2nc(=O)c3ccccc3s2)nc1 , thanks.
Reply: 248 °C

###

Let's look at some compounds and their measured melting point.

Oc1ccc(CSSCc2ccc(O)cc2)cc1	171 °C
CCSCc1ccc(CC(N)C(=O)O)cc1 (racemic)	251 °C
CC(C)(C)OC(=O)N1CCC(C(=O)C2CCCCC2=O)CC1 (stereo unspecified)	71 to 72 °C
CN(C)C/C=C/C(=O)Nc1cc2c(Nc3ccc(F)c(Br)c3)ncnc2cn1	163 to 166 °C
CN1CCc2nc3cc(Cl)ccc3c(Oc3ccccc3)c2C1	138 to 139 °C

Query: melting point lookup needed for Nc1ncnc2c1ncn2C1OC(C(O)C(=O)NC2CCCC2)C(O)C1O (stereo unspecified) , thanks.
Reply: 155 to 157 °C

Query: melting point lookup needed for CCCCCCCCCCCCCCCC(=O)C(O)(O)C(=O)OC(C)(C)C , thanks.
Reply: 49 to 51 °C

Query: melting point lookup needed for COC(=O)Cc1ccccc1NC(=S)N(C)NC(=O)c1ccccc1 , thanks.
Reply: 148 to 150 °C

Query: melting point lookup needed for N#Cc1c(-c2cccc(F)c2)c(Cl)n2c1CNCC2 , thanks.
Reply: 104 to 106 °C

###

parameter: melting point

Query: melting point lookup needed for CCCCN(CCCC)c1ccc(C=CC2=C(OC)C(=CC=CC3=C(C#N)C(=C(C#N)C#N)OC3(c3ccccc3)C(F)(F)F)CC(C)(C)C2)c(OC)c1 (centres undefined) , thanks.
Reply: 153 to 158 °C

Query: melting point lookup needed for Cc1sc(-c2ccccc2)nc1COc1ccc(CCCC2OCCO2)cc1 , thanks.
Reply: 80 to 81 °C

Query: melting point lookup needed for CC(=O)Nc1cccc2c1C(=O)c1c-2n[nH]c1-c1ccc(N2CCCCC2)cc1 , thanks.
Reply: 291 °C

Query: melting point lookup needed for COc1cc(C)nc(NC(=O)NS(=O)(=O)c2ccccc2NC(C)=O)n1 , thanks.
Reply: 161 to 162 °C

###

Let's look at some compounds and their measured melting point.

O=C(Nc1c[nH]nc1C(=O)Nc1ccccc1)c1ccccn1	281 to 282 °C

Query: melting point lookup needed for Cc1c(Cc2ccc(C(C)C)cc2)c2c(c(C)c1NC(=O)CC(C)(C)C)C(c1ccccc1)CO2 (centres undefined) , thanks.
Reply: 137 to 141 °C

Query: melting point lookup needed for Cn1c(CNC(=O)Nc2cccc(C(=O)O)c2)c(-c2ccccc2)c2cc(Cl)ccc2c1=O , thanks.
Reply: 236 to 239 °C

Query: melting point lookup needed for CCC(CC)c1nc(-c2ccncc2)c(-c2ccc(Cl)cc2)n1CC , thanks.
Reply: 239 to 242 °C

###

Let's look at some compounds and their measured melting point.

Answered examples (5):
O=C(c1ncc[nH]1)c1cc(F)c(F)cc1Cl	80 to 81 °C
CC1=NCCn2cccc21	25 to 27 °C
Nc1ccccc1NC(=O)c1ccc(NC(=O)CO)cc1	221 to 223 °C
CCOC(=O)c1cc(O[C@@H]2c3c(C)ccc(C)c3C[C@H]2O)c2nc(C)n(C)c2c1 (relative stereo)	184 °C
CCCCCCCCCCCC1=NCCN1	82 °C

Query: melting point lookup needed for CC(C)S(=O)(=O)C(C#N)=C(Nc1cc(C(F)(F)F)cc(C(F)(F)F)c1)NC1CCC1 , thanks.
Reply: 148 to 150 °C

Query: melting point lookup needed for BrCc1nc2cc(OCc3ccccc3)ccc2s1 , thanks.
Reply: 87 to 89 °C

Query: melting point lookup needed for Cn1c(=O)c2sccc2n2cnc(-c3nc(C4CC4)no3)c12 , thanks.
Reply: 206 to 207 °C

Query: melting point lookup needed for COC1(Nc2ccccc2CCCc2ccc(Cl)c(Cl)c2)CC=C(C(=O)O)C=C1[N+](=O)[O-] (configuration not stated) , thanks.
Reply: 127 to 129 °C

Query: melting point lookup needed for COCCOc1ccc(CCNC(=O)C=Cc2ccc(OC)cc2OC)cc1S(N)(=O)=O , thanks.
Reply: 175 to 178 °C

Query: melting point lookup needed for CCN(CC)S(=O)(=O)c1cc2oc(-c3ccccc3)nc2c2ccccc12 , thanks.
Reply: 157 °C

Query: melting point lookup needed for Cc1nc(-n2ccc(OCc3ccc(F)cc3)cc2=O)sc1C(=O)NCc1ccccc1 , thanks.
Reply: 243 to 245 °C

Query: melting point lookup needed for CCOCc1nc2c(N)nc3c(c2n1CC1(O)CCCC1)NCCC3 , thanks.
Reply: 207 to 208 °C

Query: melting point lookup needed for CCN(CC)C(=O)Nc1ccc(S(=O)(=O)N2C(=O)C(CCCN(C)C)(c3ccccc3F)c3cc(C)c(OC)cc32)cc1F (configuration not stated) , thanks.
Reply: 82 °C

Query: melting point lookup needed for COC(=O)c1oc(Cl)nc1C , thanks.
Reply: 69 to 71 °C

###

parameter: melting point

CN(C)c1ccc(NC(=O)N(C[C@@H]2CCC[C@H](CN(CC(C)(C)C)C(=O)Nc3ccc(N(C)C)cc3)C2)CC(C)(C)C)cc1	171 to 173 °C
Cc1ccc(-c2nc(-c3ccc(C)cc3C)nc(-c3ccc(O)cc3O)n2)c(C)c1	199 to 201 °C

Query: melting point lookup needed for CCNC(=O)c1cc2c(nc(C)n2C)c2c1CCC1(Cc3ccccc3C1)N2 , thanks.
Reply: 223 to 224 °C

Query: melting point lookup needed for CCOC(=O)C1=C[C@H](c2ccc(C)cc2)[C@H](CO[Si](C)(C)C(C)(C)C)C(=O)O1 , thanks.
Reply: 60 to 61 °C

Query: melting point lookup needed for COC=CC(C)(C)C(=O)Nc1ccc(Cl)cc1 , thanks.
Reply: 93 °C

###

Let's look at some molecules and their measured melting point.

Answered examples (3):
O=C1Cc2cc(Br)ccc2Oc2cc(O)cc(O)c21	112 to 117 °C
CCC1C(c2ccc(OC(Cl)C(=O)O)cc2Cl)=CC(=O)CC1C (centres undefined)	183 °C
CC(C)c1cccc(C(C)C)c1NC(=O)[C@H](Cc1ccccc1)NC(=O)OCC1c2ccccc2-c2ccccc21	210 to 212 °C

Query: melting point lookup needed for CC(=O)NCC1CC1c1c(-c2ccccc2)ccc2nn(C)cc12 (centres undefined) , thanks.
Reply: 156 to 158 °C

Query: melting point lookup needed for CCN(CC)CCNc1ccc(-c2ccnc(Nc3cc(OC)c(OC)c(OC)c3)n2)cn1 , thanks.
Reply: 67 °C

Query: melting point lookup needed for CCCCCCCCCc1cc2ccc(C(=O)O)cc2[nH]1 , thanks.
Reply: 166 to 169 °C

Query: melting point lookup needed for CCCCNC(=O)N1N=C(c2ccc([N+](=O)[O-])cc2)c2cc(Cl)ccc2CC1C (centres undefined) , thanks.
Reply: 150 °C

Query: melting point lookup needed for CC(=O)NC1([N+](=O)[O-])C=C(C)C=CN1 (centres undefined) , thanks.
Reply: 146 to 149 °C

Query: melting point lookup needed for COc1cc(-c2nc(NC(C)(C)C)c3c(C)c(C#N)sc3n2)cc(OC)c1OC , thanks.
Reply: 195 to 197 °C

Query: melting point lookup needed for CCN(CC)c1ccc(Nc2nc(N)c(C(=O)c3ccc([N+](=O)[O-])cc3)s2)cc1 , thanks.
Reply: 220 to 221 °C

Query: melting point lookup needed for CCCCCCCCCCCCCCCCC=Cc1ccc(O)c(C(=O)O)c1 , thanks.
Reply: 95 °C

Query: melting point lookup needed for O=C1C=C(OCCCCCCO)c2ccccc2C1=O , thanks.
Reply: 96 to 98 °C

Query: melting point lookup needed for CCN(CC)C(=O)CC1CCN(Cc2cnc3c(C)c(NC(=O)c4ccc(-c5ccc(F)cc5)cc4)ccc3c2)CC1 , thanks.
Reply: 158 to 160 °C

Query: melting point lookup needed for COc1nc2cc(SCCCc3cc4c(cc3O)CC(CCc3ccccc3)O4)ccc2cc1C(=O)O (centres undefined) , thanks.
Reply: 157 to 161 °C

Query: melting point lookup needed for Cc1cc(NC(=O)c2c(Cl)cccc2Cl)c2nccc(Cl)c2c1 , thanks.
Reply: 203 to 205 °C
